Reference for the values: patent US12052991B2

System: Alopecurus myosuroides (ALOMY)
Experiment: Herbicidal pre-emergence action, test C (Table C9)
Assay type: in vivo
Conditions: dosage 320 g/ha; visual scoring after about 3 weeks; 100% = plants have died, 0% = like control plants
# Pre-emergence action against Alopecurus myosuroides (ALOMY) listing for each entry below

Worked examples, 4 molecules total:
{"columns": ["Molecule", "Reported Value"],
 "data": [
  ["FC(F)c1cc(-c2ccccc2Oc2ccccn2)on1 [Example 1-38]", "90%"],
  ["N#Cc1cccc(Oc2ccc(Cl)cn2)c1-c1cc(C(F)F)no1 [Example 1-55]", "100%"],
  ["Cc1cccc(Oc2ncc(Cl)cc2F)c1-c1cc(C(F)F)no1 [Example 1-20]", "90%"],
  ["Cc1cccc(Oc2ncc(Cl)cc2F)c1-c1cc(C(F)F)on1 [Example 1-10]", "100%"]
]}

# context switch: different molecule, same Pre-emergence action against Alopecurus myosuroides (ALOMY)
Pre-emergence action against Alopecurus myosuroides (ALOMY) reported for this molecule Fc1cc(Cl)cnc1Oc1ccccc1-c1cncc(C(F)(F)F)c1 [Example 1-72] : 100%

----------
Test system: Alopecurus myosuroides (ALOMY)
Experiment: Herbicidal pre-emergence action, test C (Table C9)
Assay type: in vivo
Conditions: dosage 1280 g/ha; visual scoring after about 3 weeks; 100% = plants have died, 0% = like control plants
Quantity Name: Pre-emergence action against Alopecurus myosuroides (ALOMY) (%)
Answer in %, number only, no unit symbol.

Worked examples, 3 compounds total:
{"columns": ["Smiles Str", "Unit Symbol", "Reported Value"],
 "data": [
  ["Cc1cc(C)c(-c2cc(C(F)F)no2)c(Oc2ncc(Cl)cc2F)c1", "%", 90],
  ["Cc1cccc(Oc2ccc(Cl)cn2)c1-c1cc(C(F)F)no1", "%", 90],
  ["Cc1cc(F)c(-c2cc(C(F)F)no2)c(Oc2ncc(Cl)cc2F)c1", "%", 100]
]}

Pre-emergence action against Alopecurus myosuroides (ALOMY) reported for this compound "Cc1cc(C)c(-c2cc(C(F)F)no2)c(Oc2ccccn2)c1" : 90

----------
Tested on: Poa annua (POAAN)
Assay: Herbicidal pre-emergence action, test C (Table C3)
Assay type: in vivo
Details: dosage 320 g/ha; visual scoring after about 3 weeks; 100% = plants have died, 0% = like control plants
# Pre-emergence action against Poa annua (POAAN) listing for each entry below
Answer in %, number only, no unit symbol.

Worked examples, 3 compounds total:
{"columns": ["Compound", "Measurement Target", "Reported Value"],
 "data": [
  ["Cn1nc(-c2c(F)cccc2Oc2ccc(Cl)cn2)cc1C(F)F [Example 1-64]", "Poa annua (POAAN)", 90],
  ["Fc1cccc(Oc2ccccn2)c1-c1cc(C(F)F)no1 [Example 1-16]", "Poa annua (POAAN)", 100],
  ["Fc1cc(Cl)cnc1Oc1ccccc1-c1ccc(Cl)cn1 [Example 1-74]", "Poa annua (POAAN)", 100]
]}

Pre-emergence action against Poa annua (POAAN) reported for this compound Fc1cccc(Oc2ccc(Br)cn2)c1-c1cc(C(F)F)no1 [Example 1-40] : 100

Pre-emergence action against Poa annua (POAAN) reported for this compound Cc1cc(C)c(-c2cc(C(F)F)no2)c(Oc2ccccn2)c1 [Example 1-86] : 90

Pre-emergence action against Poa annua (POAAN) reported for this compound Fc1ccc(Oc2ncc(Cl)cc2F)c(-c2cc(C(F)F)on2)c1 [Example 1-31] : 90

Pre-emergence action against Poa annua (POAAN) reported for this compound FC(F)c1cc(-c2c(Br)cccc2Oc2ccc(Cl)cn2)on1 [Example 1-53] : 100

Pre-emergence action against Poa annua (POAAN) reported for this compound Fc1cccc(Oc2ncc(Cl)cc2Cl)c1-c1cc(C(F)F)no1 [Example 1-21] : 100

Pre-emergence action against Poa annua (POAAN) reported for this compound Cc1cc(C)c(-c2cc(C(F)F)no2)c(Oc2ncc(Cl)cc2F)c1 [Example 1-79] : 90

Pre-emergence action against Poa annua (POAAN) reported for this compound Cc1cccc(Oc2ccc(Cl)cn2)c1-c1cc(C(F)F)no1 [Example 1-18] : 90

Pre-emergence action against Poa annua (POAAN) reported for this compound Fc1cc(Cl)cnc1Oc1ccccc1-c1cncc(C(F)(F)F)c1 [Example 1-72] : 100

Pre-emergence action against Poa annua (POAAN) reported for this compound Cc1cccc(Oc2ncc(Cl)cc2F)c1-c1cc(C(F)F)on1 [Example 1-10] : 100

Pre-emergence action against Poa annua (POAAN) reported for this compound Fc1cc(Cl)cnc1Oc1ccccc1-c1cc(C(F)F)no1 [Example 1-36] : 100

Pre-emergence action against Poa annua (POAAN) reported for this compound Cc1cc(F)c(-c2cc(C(F)F)no2)c(Oc2ncc(Cl)cc2F)c1 [Example 1-89] : 90

Pre-emergence action against Poa annua (POAAN) reported for this compound Cc1cccc(Oc2ncc(Cl)cc2F)c1-c1cc(C(F)F)no1 [Example 1-20] : 90
